Entries and their thermal stability score
test system: HeLa Kyoto; assay: thermal stability score vs G1/S (z-score of summed log2 fold changes over temperatures); higher = more thermally stable than in G1/S; conditions: cell cycle stage: mitosis
Lab note: write the figure by itself, no unit.

>  <sequence-content>
MAESDWDTVTVLRKKGPTAAQAKSKQAILAAQRRGEDVETSKKWAAGQNKQHSITKNTAKLDRETEELHHDRVTLEVGKVIQQGRQSKGLTQKDLATKINEKPQVIADYESGRAIPNNQVLGKIERAIGLKLRGKDIGKPIEKGPRAK [EDF1]

>  <tested-on>
HeLa Kyoto

>  <thermal stability score>
-6.66

$$$$
>  <sequence-content>
MAWRGWAQRGWGCGQAWGASVGGRSCEELTAVLTPPQLLGRRFNFFIQQKCGFRKAPRKVEPRRSDPGTSGEAYKRSALIPPVEETVFYPSPYPIRSLIKPLFFTVGFTGCAFGSAAIWQYESLKSRVQSYFDGIKADWLDSIRPQKEGDFRKEINKWWNNLSDGQRTVTGIIAANVLVFCLWRVPSLQRTMIRYFTSNPASKVLCSPMLLSTFSHFSLFHMAANMYVLWSFSSSIVNILGQEQFMAVYLSAGVISNFVSYVGKVATGRYGPSLGASGAIMTVLAAVCTKIPEGRLAIIFLPMFTFTAGNALKAIIAMDTAGMILGWKFFDHAAHLGGALFGIWYVTYGHELIWKNREPLVKIWHEIRTNGPKKGGGSK [PARL]

>  <tested-on>
HeLa Kyoto

>  <thermal stability score>
-2.36

$$$$
>  <sequence-content>
MAEPFLSEYQHQPQTSNCTGAAAVQEELNPERPPGAEERVPEEDSRWQSRAFPQLGGRPGPEGEGSLESQPPPLQTQACPESSCLREGEKGQNGDDSSAGGDFPPPAEVEPTPEAELLAQPCHDSEASKLGAPAAGGEEEWGQQQRQLGKKKHRRRPSKKKRHWKPYYKLTWEEKKKFDEKQSLRASRIRAEMFAKGQPVAPYNTTQFLMDDHDQEEPDLKTGLYSKRAAAKSDDTSDDDFMEEGGEEDGGSDGMGGDGSEFLQRDFSETYERYHTESLQNMSKQELIKEYLELEKCLSRMEDENNRLRLESKRLGGDDARVRELELELDRLRAENLQLLTENELHRQQERAPLSKFGD [HEXIM1]

>  <tested-on>
HeLa Kyoto;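 note: synchronized HeLa Kyoto cells, proteins quantified by TMT10plex mass spectrometry, three biological replicates, mitosis taken 0.5 h after nocodazole release, G1/S directly after double thymidine block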

>  <thermal stability score>
-2.03

$$$$

The sequence MAVTITLKTLQQQTFKIRMEPDETVKVLKEKIEAEKGRDAFPVAGQKLIYAGKILSDDVPIRDYRIDEKNFVVVMVTKTKAGQGTSAPPEASPTAAPESSTSFPPAPTSGMSHPPPAAREDKSPSEESAPTTSPESVSGSVPSSGSSGREEDAASTLVTGSEYETMLTEIMSMGYERERVVAALRASYNNPHRAVEYLLTGIPGSPEPEHGSVQESQVSEQPATEAAGENPLEFLRDQPQFQNMRQVIQQNPALLPALLQQLGQENPQLLQQISRHQEQFIQMLNEPPGELADISDVEGEVGAIGEEAPQMNYIQVTPQEKEAIERLKALGFPESLVIQAYFACEKNENLAANFLLSQNFDDE [RAD23A] showed thermal stability score equal to -1.48

For MAGKKNVLSSLAVYAEDSEPESDGEAGIEAVGSAAEEKGGLVSDAYGEDDFSRLGGDEDGYEEEEDENSRQSEDDDSETEKPEADDPKDNTEAEKRDPQELVASFSERVRNMSPDEIKIPPEPPGRCSNHLQDKIQKLYERKIKEGMDMNYIIQRKKEFRNPSIYEKLIQFCAIDELGTNYPKDMFDPHGWSEDSYYEALAKAQKIEMDKLEKAKKERTKIEFVTGTKKGTTTNATSTTTTTASTAVADAQKRKSKWDSAIPVTTIAQPTILTTTATLPAVVTVTTSASGSKTTVISAVGTIVKKAKQ [SAP30BP] the sequence record lists thermal stability score as 1.18

Entry MRLSWFRVLTVLSICLSAVATATGAEGKRKLQIGVKKRVDHCPIKSRKGDVLHMHYTGKLEDGTEFDSSLPQNQPFVFSLGTGQVIKGWDQGLLGMCEGEKRKLVIPSELGYGERGAPPKIPGGATLVFEVELLKIERRTEL [FKBP2] ; thermal stability score = 1.16

sequence MRALRAGLTLASGAGLGAVVEGWRRRREDARAAPGLLGRLPVLPVAAAAELPPVPGGPRGPGELAKYGLPGLAQLKSRESYVLCYDPRTRGALWVVEQLRPERLRGDGDRRECDFREDDSVHAYHRATNADYRGSGFDRGHLAAAANHRWSQKAMDDTFYLSNVAPQVPHLNQNAWNNLEKYSRSLTRSYQNVYVCTGPLFLPRTEADGKSYVKYQVIGKNHVAVPTHFFKVLILEAAGGQIELRTYVMPNAPVDEAIPLERFLVPIESIERASGLLFVPNILARAGSLKAITAGSK [ENDOG] , thermal stability score observed: 0.994

Recorded result, MAKTYDYLFKLLLIGDSGVGKTCLLFRFSEDAFNTTFISTIGIDFKIRTIELDGKKIKLQIWDTAGQERFRTITTAYYRGAMGIMLVYDITNEKSFDNIKNWIRNIEEHASSDVERMILGNKCDMNDKRQVSKERGEKLAIDYGIKFLETSAKSSANVEEAFFTLARDIMTKLNRKMNDSNSAGAGGPVKITENRSKKTSFFRCSLL [RAB8B] , thermal stability score: 0.563

Reported thermal stability score for MRKMLAAVSRVLSGASQKPASRVLVASRNFANDATFEIKKCDLHRLEEGPPVTTVLTREDGLKYYRMMQTVRRMELKADQLYKQKIIRGFCHLCDGQEACCVGLEAGINPTDHLITAYRAHGFTFTRGLSVREILAELTGRKGGCAKGKGGSMHMYAKNFYGGNGIVGAQVPLGAGIALACKYNGKDEVCLTLYGDGAANQGQIFEAYNMAALWKLPCIFICENNRYGMGTSVERAAASTDYYKRGDFIPGLRVDGMDILCVREATRFAAAYCRSGKGPILMELQTYRYHGHSMSDPGVSYRTREEIQEVRSKSDPIMLLKDRMVNSNLASVEELKEIDVEVRKEIEDAAQFATADPEPPLEELGYHIYSSDPPFEVRGANQWIKFKSVS [PDHA1] was -2.37

// thermal stability score lookup, sequence = MRLLPRLLLLLLLVFPATVLFRGGPRGLLAVAQDLTEDEETVEDSIIEDEDDEAEVEEDEPTDLVEDKEEEDVSGEPEASPSADTTILFVKGEDFPANNIVKFLVGFTNKGTEDFIVESLDASFRYPQDYQFYIQNFTALPLNTVVPPQRQATFEYSFIPAEPMGGRPFGLVINLNYKDLNGNVFQDAVFNQTVTVIEREDGLDGETIFMYMFLAGLGLLVIVGLHQLLESRKRKRPIQKVEMGTSSQNDVDMSWIPQETLNQINKASPRRLPRKRAQKRSVGSDE [SSR1] , result: 0.359
